Molecular target: pY705-STAT3 in PBMC (Homo sapiens, UniProt P40763)
Construct: Cryopreserved Peripheral Blood Mononuclear Cells (PBMC) are from AllCells; host or cells: cryopreserved PBMC
Sequence (P40763 whole entry): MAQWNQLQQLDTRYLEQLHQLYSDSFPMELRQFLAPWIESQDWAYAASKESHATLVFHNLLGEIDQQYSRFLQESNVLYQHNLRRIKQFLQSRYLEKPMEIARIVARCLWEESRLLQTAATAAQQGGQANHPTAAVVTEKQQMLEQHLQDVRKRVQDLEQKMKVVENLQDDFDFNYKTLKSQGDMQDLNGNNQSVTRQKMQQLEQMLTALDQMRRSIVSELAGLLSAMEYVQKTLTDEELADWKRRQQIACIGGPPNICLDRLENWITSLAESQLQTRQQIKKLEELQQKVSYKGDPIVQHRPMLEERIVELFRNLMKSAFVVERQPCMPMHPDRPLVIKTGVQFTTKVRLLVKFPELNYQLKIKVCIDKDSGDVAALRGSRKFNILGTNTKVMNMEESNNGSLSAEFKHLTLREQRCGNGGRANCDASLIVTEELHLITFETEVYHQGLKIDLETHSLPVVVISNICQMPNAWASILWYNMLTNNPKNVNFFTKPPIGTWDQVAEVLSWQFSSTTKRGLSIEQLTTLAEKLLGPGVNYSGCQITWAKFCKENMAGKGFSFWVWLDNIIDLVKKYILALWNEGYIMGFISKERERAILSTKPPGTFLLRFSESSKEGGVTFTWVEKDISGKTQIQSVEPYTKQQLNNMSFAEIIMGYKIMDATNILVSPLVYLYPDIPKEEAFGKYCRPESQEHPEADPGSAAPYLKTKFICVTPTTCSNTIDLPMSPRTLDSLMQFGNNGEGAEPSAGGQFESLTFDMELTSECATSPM
Test: MSD-pSTAT-PBMC Assay (pSTAT3, IL-6 stimulated)
Format: cell-based
Conditions: STAT3, PBMC, compound 3 hrs, then 10 ng/mL IL-6 for 10 min; Table 115
pIC50: −log10 of the molar value.
Quick reference: pIC50 of the listed items.

// below: answered compounds
# COMPOUND, TESTED_ON, pIC50
measured = [
    ("CC(C)CC(=O)SCCOP(=O)(Oc1cccc(C#N)c1)C(F)(F)c1ccc2sc(C(=O)N[C@H]3CCCC[C@H]4CC[C@@H](C(=O)N5C[C@H](c6ccccc6)[C@@H](C#N)C5)N4C3=O)cc2c1 (single isomer, unassigned)", "pY705-STAT3 in PBMC (Homo sapiens, UniProt P40763)", "< 5.52"),
    ("CCCOC(=O)[C@H](C)NP(=O)(Oc1ccccc1)[C@@H](F)c1ccc2sc(C(=O)N[C@H]3CCC[C@H]4CC[C@@H](C(=O)N5C[C@@H](c6ccccc6)[C@H](C#N)C56CC6)N4C3=O)cc2c1 (some centres unmarked)", "pY705-STAT3 in PBMC (Homo sapiens, UniProt P40763)", "< 5.52"),
    ("CCCCOC(=O)[C@@H]1CC(F)(F)CN1P(=O)(Cc1ccc2sc(C(=O)N[C@H]3CCC[C@H]4CC[C@@H](C(=O)N5CC(c6cccnc6)C5)N4C3=O)cc2c1)Oc1ccccc1 (some centres unmarked)", "pY705-STAT3 in PBMC (Homo sapiens, UniProt P40763)", "5.52 to 6.00"),
    ("CCCOC(=O)[C@H](C)NP(=O)(Cc1ccc2sc(C(=O)N[C@H]3C[C@H](C)C[C@H]4CC[C@@H](C(=O)N5CC(c6cnccc6N(C)C)C5)N4C3=O)cc2c1)Oc1ccccc1 (some centres unmarked)", "pY705-STAT3 in PBMC (Homo sapiens, UniProt P40763)", "> 7.00"),
]

Query block: Data request, read-out pIC50, for CCCOC(=O)[C@H](C)NP(=O)(Oc1ccccc1)[C@H](F)c1ccc2sc(C(=O)N[C@H]3CCC[C@H]4CC[C@@H](C(=O)N5C[C@H](c6ccccc6)[C@@H](C#N)C56CC6)N4C3=O)cc2c1 (some centres unmarked)
Result block: < 5.52

----------
Target: Recombinant STAT3 protein (STAT3 (G127-I722)) (Homo sapiens)
Construct: Recombinant STAT3 protein (STAT3 (G127-I722))
Sequence (P40763 127-722): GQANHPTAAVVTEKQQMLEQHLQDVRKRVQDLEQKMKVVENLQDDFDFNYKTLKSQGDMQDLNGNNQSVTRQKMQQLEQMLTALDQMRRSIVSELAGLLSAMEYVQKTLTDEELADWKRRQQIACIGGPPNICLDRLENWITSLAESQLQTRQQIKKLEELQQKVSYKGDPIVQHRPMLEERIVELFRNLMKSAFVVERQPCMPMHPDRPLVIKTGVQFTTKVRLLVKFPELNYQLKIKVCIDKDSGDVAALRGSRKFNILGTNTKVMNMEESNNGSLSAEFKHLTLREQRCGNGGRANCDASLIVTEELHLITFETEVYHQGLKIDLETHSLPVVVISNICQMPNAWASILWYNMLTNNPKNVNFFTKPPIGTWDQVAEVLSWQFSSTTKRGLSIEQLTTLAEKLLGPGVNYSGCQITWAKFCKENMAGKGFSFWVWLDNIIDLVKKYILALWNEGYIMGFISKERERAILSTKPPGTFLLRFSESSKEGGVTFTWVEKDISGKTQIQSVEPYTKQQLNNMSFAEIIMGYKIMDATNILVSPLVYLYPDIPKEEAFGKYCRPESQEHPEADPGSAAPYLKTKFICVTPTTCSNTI
Assay: STAT3 Fluorescence Polarization (FP) Assay
Format: binding
Conditions: STAT3 (G127-I722) 25 nM, probe 5-FAM-GpYLPQTV-NH2 2 nM, 45-minute incubation; read-out: STAT3 (FP assay IC50 class)
Protocol: STAT3 Fluorescence Polarization (FP) Assay An FP assay was developed to determine IC50 values for test substances. […] Reaction components were mixed, and FP was measured after 45-minute incubation at room temperature using a Tecan Spark multimode plate reader. FP signal (mP) was plotted against the log concentration of the test substances and IC50 values were calculated by nonlinear regression analysis using GraphPad Prism software. […]
Quick reference: IC50 of the listed items.

# COMPOUND, TESTED_ON, MEASUREMENT_LABEL, RESULT
rows = [
    ("CCOc1ccncc1C1CN(C(=O)[C@@H]2CC[C@@H]3CCC[C@H](NC(=O)c4cc5cc([C@H](F)P(=O)(O)O)ccc5s4)C(=O)N32)C1 (single isomer, unassigned) [Compound 772]", "Recombinant STAT3 protein (STAT3 (G127-I722)) (Homo sapiens)", "IC50", "< 100 nM"),
    ("O=C(N[C@H]1CCCC[C@H]2CC[C@@H](C(=O)N[C@@H](CO)Cc3cccnc3)N2C1=O)c1cc2cc(C(F)(F)P(=O)(O)O)ccc2s1 [Compound 727]", "Recombinant STAT3 protein (STAT3 (G127-I722)) (Homo sapiens)", "IC50", "1000 to 10000 nM"),
    ("CCc1ccncc1C1CN(C(=O)[C@@H]2CC[C@@H]3CCC[C@H](NC(=O)c4cc5cc(CP(=O)(O)O)ccn5n4)C(=O)N32)C1 [Compound 618]", "Recombinant STAT3 protein (STAT3 (G127-I722)) (Homo sapiens)", "IC50", "1000 to 10000 nM"),
]

Query block: Form field: IC50 recorded for O=C(N[C@H]1CCC[C@H]2CC[C@@H](C(=O)N3CC(n4cccn4)C3)N2C1=O)c1cc2cc(C(F)P(=O)(O)O)ccc2s1 (stereo partly shown) [Compound 613] with Recombinant STAT3 protein (STAT3 (G127-I722)) (Homo sapiens) (enter value)
Result block: 100 to 1000 nM

----------
Molecular target: Recombinant STAT6 protein (STAT6 (W123-T658)) (Homo sapiens, UniProt P42226)
Construct: Recombinant STAT6 protein (STAT6 (W123-T658))
Sequence (P42226 123-658): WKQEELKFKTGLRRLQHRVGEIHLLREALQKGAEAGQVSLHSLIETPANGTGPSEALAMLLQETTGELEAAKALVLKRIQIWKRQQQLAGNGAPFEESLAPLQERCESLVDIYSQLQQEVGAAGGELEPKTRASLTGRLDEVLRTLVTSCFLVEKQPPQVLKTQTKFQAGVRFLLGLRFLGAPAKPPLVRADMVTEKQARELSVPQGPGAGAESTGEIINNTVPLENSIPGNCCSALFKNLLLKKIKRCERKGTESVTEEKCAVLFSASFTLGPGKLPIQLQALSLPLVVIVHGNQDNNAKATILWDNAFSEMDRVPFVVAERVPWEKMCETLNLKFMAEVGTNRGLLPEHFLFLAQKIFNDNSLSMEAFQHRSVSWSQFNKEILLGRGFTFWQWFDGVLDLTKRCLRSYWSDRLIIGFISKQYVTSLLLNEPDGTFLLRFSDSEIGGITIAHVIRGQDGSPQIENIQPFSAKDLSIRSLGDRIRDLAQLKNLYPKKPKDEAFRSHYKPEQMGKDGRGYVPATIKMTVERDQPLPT
Assay: STAT6 Fluorescence Polarization (FP) Assay
Type: binding
Conditions: STAT6 (W123-T658) 250 nM, probe 5-FAM-Ap[…]-NH2 2 nM, 45-minute incubation; read-out: STAT6 (FP assay IC50 class)
pIC50: −log10 of the molar value.
Quick reference: pIC50 of the listed items.

// below: answered compounds
# COMPOUND, pIC50
records = [
    ("CCC[C@@H]1CC[C@H](NC(=O)c2cc3cc(C(F)P(=O)(O)O)ccc3s2)C(=O)N2[C@H](CC[C@H]2C(=O)N2CC(c3cnccc3OC)C2)C1 (stereo partly drawn)", "4.52 to 5.52"),
    ("C[C@H]1C[C@H]2CC[C@@H](C(=O)N3CC(c4cncnc4N4CCC4)C3)N2C(=O)[C@@H](NC(=O)c2cc3cc([C@H](F)P(=O)(O)O)ccc3s2)C1 (single isomer, unassigned)", "4.52 to 5.52"),
]

As a next step, examine the compound that follows.
Query block: Data request, read-out pIC50, for `O=C(N[C@H]1CCC[C@H]2CC[C@@H](C(=O)N3CC(c4cnccc4N4CC(C(F)F)C4)C3)N2C1=O)c1cc2cc(CP(=O)(O)O)ccc2s1`
Result block: 4.52 to 5.52

----------
Biological target: Recombinant STAT3 protein (STAT3 (G127-I722)) (Homo sapiens)
Construct: Recombinant STAT3 protein (STAT3 (G127-I722))
Experiment: STAT3 Fluorescence Polarization (FP) Assay
Type: binding
Settings: STAT3 (G127-I722) 25 nM, probe 5-FAM-GpYLPQTV-NH2 2 nM, 45-minute incubation; read-out: STAT3 (FP assay IC50 class)
Procedure: STAT3 Fluorescence Polarization (FP) Assay An FP assay was developed to determine IC50 values for test substances. […] Reaction components were mixed, and FP was measured after 45-minute incubation at room temperature using a Tecan Spark multimode plate reader. FP signal (mP) was plotted against the log concentration of the test substances and IC50 values were calculated by nonlinear regression analysis using GraphPad Prism software. […]
MEASUREMENT_LABEL: IC50

# COMPOUND, IC50
data = [
    ("Cc1nc2cc(CNC(=O)[C@@H]3CC[C@@H]4CCC[C@H](NC(=O)c5cc6cc(C(F)(F)P(=O)(O)O)ccc6s5)C(=O)N43)ccc2[nH]1", "0.1 to 1 µM"),
]

Query block: Data request, read-out IC50, for O=C(N[C@H]1CCCC[C@H]2CC[C@@H](C(=O)N3CCC(c4cccnc4)C3)N2C1=O)c1cc2cc(C(F)P(=O)(O)O)ccc2s1 (some centres unmarked)
Result block: 0.1 to 1 µM

Query block: Data request, read-out IC50, for COc1cncc([C@H]2CN(C(=O)[C@@H]3CC[C@@H]4CCC[C@H](NC(=O)c5cc6cc([C@@H](F)P(=O)(O)O)ccc6s5)C(=O)N43)C3(CC3)[C@@H]2C#N)c1 (single isomer, unassigned)
Result block: 1 to 10 µM

Query block: Data request, read-out IC50, for C[C@H]1C[C@H]2CC[C@@H](C(=O)N3CC(c4cnccc4F)C3)N2C(=O)[C@@H](NC(=O)c2cc3cc(C(F)P(=O)(O)O)ccc3s2)C1 (some centres unmarked)
Result block: < 0.1 µM

Query block: Data request, read-out IC50, for CCOc1ccncc1C1CN(C(=O)[C@@H]2CC[C@@H]3CCC[C@H](NC(=O)c4cc5cc(C(F)P(=O)(O)O)ccc5s4)C(=O)N32)C1 (some centres unmarked)
Result block: < 0.1 µM

Query block: Data request, read-out IC50, for `Cc1ccncc1C1CN(C(=O)[C@@H]2CC[C@@H]3C[C@H](C)CC[C@H](NC(=O)c4cc5cc(CP(=O)(O)O)ccc5s4)C(=O)N32)C1`
Result block: 0.1 to 1 µM

Query block: Data request, read-out IC50, for `O=C(N[C@H]1CCC[C@H]2CC[C@@H](C(=O)N3CC(c4cnccc4N4CCCC4=O)C3)N2C1=O)c1cc2cc(CP(=O)(O)O)ccc2s1`
Result block: 1 to 10 µM

Query block: Data request, read-out IC50, for O=C(N[C@H]1CCC[C@H]2CC[C@@H](C(=O)N3CC(c4cncnc4N4CCC4)C3)N2C1=O)c1cc2cc([C@H](F)P(=O)(O)O)ccc2s1 (single isomer, unassigned)
Result block: < 0.1 µM

Query block: Data request, read-out IC50, for `COc1ccncc1C1CN(C(=O)[C@@H]2CC[C@@H]3C[C@@H](C)C[C@H](NC(=O)c4cc5cc([C@H](F)P(=O)(O)O)ccc5s4)C(=O)N32)C1`
Result block: < 0.1 µM

Query block: Data request, read-out IC50, for `O=C(N[C@H]1CCCC[C@H]2CC[C@@H](C(=O)N3C[C@@H](c4cccnc4)CC34CC4)N2C1=O)c1cc2cc(CP(=O)(O)O)ccc2s1`
Result block: 1 to 10 µM

Query block: Data request, read-out IC50, for CN(C)C(=O)c1ccncc1C1CN(C(=O)[C@@H]2CC[C@@H]3CCC[C@H](NC(=O)c4cc5cc([C@@H](F)P(=O)(O)O)ccc5s4)C(=O)N32)C1 (single isomer, unassigned)
Result block: 1 to 10 µM
